Each entry below lists one item and its recorded FACS-Seq fitted mean (log10) value.
B1: library; a variant is named by its letters at N, in order (parent)
chain: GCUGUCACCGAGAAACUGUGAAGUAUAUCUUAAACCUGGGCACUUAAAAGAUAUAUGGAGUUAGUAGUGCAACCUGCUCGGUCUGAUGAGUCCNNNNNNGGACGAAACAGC

Variants of: B1
EXPERIMENT DESCRIPTION: FACS-Seq fitted mean relative fluorescence mCherry/BFP with ligand (log10 relative fluorescence); HEK293T; ligand: cyclic di-GMP (c-di-GMP-II aptamer); ligand concentration (+) FACS-Seq: 1 mM; higher = higher reporter protein expression
RUN PARAMETERS: ligand present: yes
No unit in the answer, please; the number alone is enough.

Worked cases, FACS-Seq fitted mean (log10) given:
What the record says about UCAGCG : FACS-Seq fitted mean (log10) is -0.141

variant AGAAGA , FACS-Seq fitted mean (log10) observed: -0.515

According to the records, this variant ACUGAU displays FACS-Seq fitted mean (log10) of -0.128

Recorded result, UCCUCG , FACS-Seq fitted mean (log10): 0.448

Form field FACS-Seq fitted mean (log10), entry AACCAA : -0.235

More entries:
Lab note: UGAACG gave FACS-Seq fitted mean (log10) of -0.0168

Quick note, FACS-Seq fitted mean (log10) for CCUUAG landed at 0.161

Lab book: FACS-Seq fitted mean (log10) of UAAUAG noted as -0.0799

The variant ACUGUA showed FACS-Seq fitted mean (log10) equal to -0.138

Lookup result for AGUAGG ; measured FACS-Seq fitted mean (log10): -0.997

// CCAAUG : FACS-Seq fitted mean (log10) value = -0.334

Reported FACS-Seq fitted mean (log10) ( AAGAAA ) = -0.0342

So, ACUGGA ? Its FACS-Seq fitted mean (log10) was -0.511

Entry GAAAUU , FACS-Seq fitted mean (log10) reported as 0.215

Form: variant = ACGUGU ; FACS-Seq fitted mean (log10) = -0.096

Form field FACS-Seq fitted mean (log10), entry GUCUUG : 0.124

Just for reference, the supplement of paper PMC6757056 is where these values come from.
